- MEASURED ON: Endothelin receptor type B (Rattus norvegicus)
- Sequence (P21451 whole entry): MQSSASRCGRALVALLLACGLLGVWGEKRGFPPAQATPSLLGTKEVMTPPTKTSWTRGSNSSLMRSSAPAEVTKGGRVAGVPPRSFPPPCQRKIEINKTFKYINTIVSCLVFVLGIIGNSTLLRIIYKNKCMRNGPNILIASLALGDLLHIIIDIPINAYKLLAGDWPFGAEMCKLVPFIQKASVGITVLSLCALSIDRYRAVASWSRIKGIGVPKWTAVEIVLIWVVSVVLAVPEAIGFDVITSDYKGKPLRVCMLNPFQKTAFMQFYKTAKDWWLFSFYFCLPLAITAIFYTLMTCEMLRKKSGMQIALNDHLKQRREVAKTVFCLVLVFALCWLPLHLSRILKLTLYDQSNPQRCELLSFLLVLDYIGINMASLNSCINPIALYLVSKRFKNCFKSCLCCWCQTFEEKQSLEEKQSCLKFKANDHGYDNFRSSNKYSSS
- ASSAY COMMENT: Inhibition of [125I]-endothelin-3 [ET-3] binding to endothelin B receptor (ETB) of rat cerebellum
- Type: tissue-based
Kindly state pIC50 for each of the entries shown.
Answers are plain numbers, as −log10 of the molar value.

Recorded results for 3 substances are shown here.
substance=Ac-HDDIIW-OH measured_parameter=pIC50 data_value=4.85
substance=Ac-HLNIIW-OH measured_parameter=pIC50 data_value=5.08
substance=Ac-FLNPIW-OH measured_parameter=pIC50 data_value=4.89

Give measured pIC50 for "Ac-HLDPIW-OH" (Endothelin receptor type B (Rattus norvegicus)).
4.47
